target: human thrombin (Homo sapiens); construct: addition of 20 μ2L human thrombin (5 U/mL, SIGMA, T 1063); purchased SIGMA T 1063; experiment: Assay for thrombin-inhibiting activity (chromogenic substrate FVR-pNa); assay type: biochemical; conditions: ratio IC50 Thrombin / IC50 Factor VIIa
Measured Thrombin selectivity by item
experimental readout: Thrombin selectivity

>>> df
                                   molecule  value_observed
0  N=C(N)c1ccc(CNC(=O)[C@H](CCC(N)=O)NC(=O)[C@@H](Cc2c[nH]c3ccccc23)NS(=O)(=O)CC(=O)O)cc1 [Example 146]             524
1  CCS(=O)(=O)N[C@H](Cc1c[nH]c2ccccc12)C(=O)N[C@@H](CCC(N)=O)C(=O)NCc1ccc(C(=N)N)cc1 [Example 5]              95
2  N=C(N)c1ccc(CNC(=O)[C@H](CCC(N)=O)NC(=O)[C@@H](Cc2c[nH]c3ccccc23)NS(=O)(=O)Cc2cccc(C(=O)O)c2)cc1 [Example 7]             483

Data credit: patent US7001887B2
